- Measured on: T1, CD27 expressed on the cell surface (HT1080_CD27 cells) (human, UniProt P26842 20-260)
- T1 construct: whole, on cells; also called K562_CD27
- T1 sequence (looked up): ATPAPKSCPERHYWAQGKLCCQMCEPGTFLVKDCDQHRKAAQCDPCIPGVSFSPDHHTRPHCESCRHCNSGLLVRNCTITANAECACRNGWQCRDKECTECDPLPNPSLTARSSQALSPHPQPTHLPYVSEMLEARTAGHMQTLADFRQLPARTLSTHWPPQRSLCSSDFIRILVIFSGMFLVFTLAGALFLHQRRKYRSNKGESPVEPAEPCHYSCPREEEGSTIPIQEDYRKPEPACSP
- Procedure details: cellular binding assay, HT1080_CD27 cells; also: test concentration or dose not given here
Metric: Cellular binding assay [RFU] (RFU)
Reply numerically in RFU, unit not repeated.

Some solved cases for reference:
P018.S.03.A.A02 (antibody, V domains shown, V regions on human Ig constant parts; also called AB27_41) VH: QSVEESGGRLVTPGTPLTLTCTVSGFSLSSYDMTWVRQAPGEGLEWIGYINTDTTTYYASWAKGRFTISRTSTTVDLEITSPTTEDTATYFCARGNDPIYIDLWGQGTLVTVSS VL: AAVLTQTPSPVSAAVGGTVSISCQSSKSVINNNWLGWYQQKPGQPPKLLISYASTLASGVPSRFSGSGSGTQFTLTISDVQSDDAATYYCAGAYSPDSENAFGGGTEVVLK; 373
P018.S.01.A.G04 (antibody, V domains shown, V regions on human Ig constant parts; also called AB27_23) VH: QEQLVESGGGLVQPEGSLTLTCTASGVSFSNNYYISWVRQAPGKGLEWIACVYTGDDDYTYYPSWAKGRFTISKTSSTTVTLQMTSLTAADTATYFCAREILYPADTDSFDLWGPGTLVTVSS VL: AFELTQTPSSVEAAVGGTVTIKCQASESISSRLAWYQQKPGQPPKLLIYRASTLASGVPSRFKGSGSGTDFTLTISDLESADAATYYCQAYVGISSGGYIFGGGTEVVVK; 388

input: Need Cellular binding assay [RFU], item P018.S.07.A.A05 (antibody, V domains shown, V regions on human Ig constant parts; also called AB27_114) VH: QEHLEESGGDLVKPGASLTLTCKASGFDLSINVMCWVRQAPGKGPEWIVCIDNGDGSTYYASWVNGRFTISKTSSTTVTLQMTSLTAADTATYFCARPGTFTYGGNTYPGSFVLWGPGTLVTVSS VL: AFELTQTPSSVEAAVGGTVTINCQASQSISNALAWYQQKPGQPPKLLIYTASNLASGVPSRFKGSGSGTQFTLTISDLESADAATYYCQNYYVNIIGIGFGGGTEVVVK
output: 379

Values were extracted from patent US20210253725A1.
